Catalogue of growth inhibition values
Experiment: NCI Yeast Anticancer Drug Screen. Data for the bub3 strain (AID 167)
Settings: S. cerevisiae bub3 mutant strain, active compounds read high; at 50.0 µM unless noted
About 79,000 compounds went through this panel and 15% of them were active in at least one assay; those are over-represented in the sample as a whole.
Return type: number; implicit unit %.

In [3]: df
Out[3]:
                                   molecule  uom  assay_value
0  N#CCN(CC#N)C1CC=CCC1N(CC#N)CC#N (centres undefined)    %          -21

Query string: Please look up its growth inhibition: Cc1nc(Nc2ccc(Cl)cc2)c2cnn(-c3ccc(Cl)cc3)c2n1
Result string: -2.3

----------
Assay: NCI Yeast Anticancer Drug Screen. Data for the rad50 strain (AID 155);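 further: 0% = growth of vehicle-only cultures of the same strain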
Details: S. cerevisiae rad50 strain growth inhibition, active compounds read high; at 50.0 µM unless noted
The panel holds about 79,000 compounds, 15% with a hit somewhere; the sample as a whole holds those more often.
measured_attribute: growth inhibition (%)
Return type: number; implicit unit %.

Query string: Please look up its growth inhibition: CC/C(C)=N\NS(=O)(=O)c1ccc(NC(C)=O)cc1
Result string: -5

Query string: Please look up its growth inhibition: CC(C)(O)C#CC(C)(C)O
Result string: 1.1

Query string: Please look up its growth inhibition: COc1ccc(/C=C(/NC(=O)c2ccccc2)C(=O)O)c(OC)c1
Result string: -7.35

Query string: Please look up its growth inhibition: CCOC(=O)/C=C/CCC(C)(C)COC(C)=O
Result string: -10.1

Query string: Please look up its growth inhibition: Cc1ccc(C(CCC#N)OC(C)C)cc1 (configuration not stated)
Result string: 0.95

----------
Experiment: NCI Yeast Anticancer Drug Screen. Data for the rad50 strain (AID 155);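 further: 0% = growth of vehicle-only cultures of the same strain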
Conditions: S. cerevisiae rad50 strain growth inhibition, active compounds read high; at 50.0 µM unless noted
About 79,000 compounds went through this panel and 15% of them were active in at least one assay; those are over-represented in the sample as a whole.
measured_attribute: growth inhibition (%)
Return type: number; implicit unit %.

>>> df
                                   compound  assay_value
0                   CC(O)(c1ccccc1)c1ccccc1        -13.3
1  CN(/N=C/c1cccs1)c1ccc(Cl)cc1[N+](=O)[O-]        -29.4
2  COc1ccc(NC(=O)C(C)Oc2ccc(OCC3CCCCC3)cc2)cc1 (stereo unspecified)        -22.9

Query string: Please look up its growth inhibition: O=C1c2ccccc2C(=O)c2c3c(cc(NCCNCCO)c21)N(CCO)CCN3
Result string: 29.4

Query string: Please look up its growth inhibition: COC(=O)c1cc(NC(=O)Nc2cc(C(F)(F)F)ccc2Cl)cc(C(=O)OC)c1
Result string: -24.2

Query string: Please look up its growth inhibition: COc1ccccc1-n1c(=O)c(N=Nc2ccc(C)cc2)c(O)n(-c2ccccc2C)c1=S
Result string: -34.8

----------
Experiment: NCI Yeast Anticancer Drug Screen. Data for the sgs1 mgt1 strain (AID 161);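 further: 0% = growth of cultures given vehicle only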
Details: S. cerevisiae sgs1 mgt1 strain, active compounds read high; at 50.0 µM unless noted
About 79,000 compounds went through this panel and 15% of them were active in at least one assay; those are over-represented in the sample as a whole.
measured_attribute: growth inhibition (%)
Return type: number; implicit unit %.

Below: 5 compounds and their reported growth inhibition.
>>> df
                                   compound  measured_attribute  assay_value
0  O=C(c1ccccc1)c1ccc2c(c1)N=C(c1ccc(Cl)c(Cl)c1)CC(c1ccc3ccccc3c1)N2 (stereo not given)   growth inhibition           -7
1                        Cn1cnc2ncnc(Cl)c21   growth inhibition          9.8
2             CC1(C)CC(=O)C=C(n2ccccc2=O)C1   growth inhibition         0.15
3  NC(=O)CC(NC(=O)CCl)C(=O)O (stereo not given)   growth inhibition          2.1
4               CC(C)N(C(=O)c1ccccc1O)C(C)C   growth inhibition         6.55

Query string: Please look up its growth inhibition: COc1ccc(C2(O)OCC(COc3cc(C)c(Cl)c(C)c3)O2)cc1OC (stereo not given)
Result string: 8.85

Query string: Please look up its growth inhibition: CNC(=S)C#N
Result string: -15.3

Query string: Please look up its growth inhibition: CC(C)CCCC(C)C1CCC2C3CC(C(=O)O)C(C)(CCC(=O)O)C3CCC12C (stereo not given)
Result string: 43.9

Query string: Please look up its growth inhibition: CCCCC1(N=[N+]=[N-])C(=O)C2C=CC=C3c4ccccc4N(C1=O)C32 (stereo not given)
Result string: -5.8

----------
Assay: NCI Yeast Anticancer Drug Screen. Data for the mlh1 rad18 strain (AID 175)
Details: S. cerevisiae mlh1 rad18 strain growth inhibition; at 50.0 µM unless noted
About 79,000 compounds went through this panel and 15% of them were active in at least one assay; those are over-represented in the sample as a whole. Calls of active or inactive are those of the source. Rule as the data show it: active = growth inhibition above about 70%; inactive = the rest.
Outcomes you can answer with include only these: active, inactive

In [3]: df
Out[3]:
                                   compound       cat
0                      C/C=C/C=C/C(=O)OCCCC  inactive
1  C=CCOCC(O)CNCC(O)COCC=C (stereo not given)  inactive
2  N#Cc1ccc(/C=C(/C(=O)c2ccccc2)c2ccccc2)cc1  inactive
3       CC(=O)Nc1nc(SCc2ccccc2)c2[nH]cnc2n1  inactive
4                         CCCCCSC(=O)C(N)=O  inactive

Query string: # fetch the recorded call for CN(CCNC(=O)C1CCCCC1C(=O)O)c1ccccc1 (stereo not given) here
Result string: inactive

Query string: # fetch the recorded call for Cc1cc(C)c(C(=O)Cc2ccccc2)c(C)c1 here
Result string: inactive

Query string: # fetch the recorded call for NC(=O)C1CC1 here
Result string: inactive

Query string: # fetch the recorded call for C=CCSC[C@H](NC(=O)COc1ccccc1)C(=O)NC(C(=O)OCc1ccc([N+](=O)[O-])cc1)=C(C)C here
Result string: inactive

Query string: # fetch the recorded call for O=C(O)COc1ccc(F)cc1F here
Result string: inactive

Query string: # fetch the recorded call for CC(=O)OCC(OC(C)=O)C(OC(C)=O)C(/C=N/N(C(C)=O)S(=O)(=O)c1ccc(/C=C2\NC(=O)NC2=O)cc1)OC(C)=O (stereo not given) here
Result string: inactive

Query string: # fetch the recorded call for C/C(CCC(CC(=O)O)C(C)C)=N\NC(N)=O (stereo not given) here
Result string: inactive

----------
Experiment: NCI Yeast Anticancer Drug Screen. Data for the sgs1 mgt1 strain (AID 161);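 further: 0% = growth of cultures given vehicle only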
Conditions: S. cerevisiae sgs1 mgt1 strain, active compounds read high; at 50.0 µM unless noted
The panel holds about 79,000 compounds, 15% with a hit somewhere; the sample as a whole holds those more often.
Assign class by growth inhibition: not lower than -10% means True; lower than -10% means False.

                                   compound    cat
0            COc1cc2ccc3c4ccccc4cnc3c2cc1OC   True
1               N#Cc1ccc(-c2ccc(C#N)cc2)cc1  False
2  COc1cc2c(cc1OC)C1Cc3ccccc3CCN1CC2 (stereo unspecified)  False
3  Clc1c(Cl)c(Cl)c(C[n+]2c(Cl)sc3ccccc32)c(Cl)c1Cl   True
4  N.N.N.N.O=C(O)C1OCCOCCOC(C(=O)O)C(C(=O)O)OCCOCCOC1C(=O)O.[Pt+2].[Pt+2] (stereo unspecified)  False

Now turn to the next compound.
Query string: Reported growth inhibition at or above -10%? CCn1nc(C)c2c1C(=O)NC(C)C(=O)N2 (stereo unspecified)
Result string: False

----------
Experiment: NCI Yeast Anticancer Drug Screen. Data for the mec2-1 strain (AID 157)
Details: S. cerevisiae mec2-1 strain, active compounds read high; at 50.0 µM unless noted
The panel holds about 79,000 compounds, 15% with a hit somewhere; the sample as a whole holds those more often.
Catalogue of growth inhibition values
Return type: number; implicit unit %.

molecule	uom	growth inhibition
Cc1ccc2c(c1)C(C)(C)C(C)(C)C2(C)C	%	-0.8
COc1ccc(/C=N/NC(=O)c2sc(=S)n(-c3ccccc3)c2N)cc1	%	-0.45

The record that follows has no growth inhibition shown yet.
Query string: Please look up its growth inhibition: C=CC(=O)Nc1ccccc1
Result string: -8.05

----------
Assay: NCI Yeast Anticancer Drug Screen. Data for the mlh1 rad18 strain (AID 175)
Settings: S. cerevisiae mlh1 rad18 strain growth inhibition, active compounds read high; at 50.0 µM unless noted
This is part of a sample that, as a whole, favours compounds with a hit. Of some 79,000 tested, about 15% had one in any assay.
measured_attribute: growth inhibition (%)
Return type: number; implicit unit %.

Below: 2 compounds and their reported growth inhibition.
>>> print(df.to_string())
                                   compound  measured_attribute  assay_value
0                      CCOc1ccc(NC(N)=O)cc1   growth inhibition         15.2
1  O=C1CN(c2cccc(Cl)c2)C(=O)CN1/N=C/c1ccco1   growth inhibition         22.1

Query string: Please look up its growth inhibition: CCOC(=O)C(=O)Nc1cc(C)no1
Result string: -2

Query string: Please look up its growth inhibition: C1CCC2=NCCCN2CC1
Result string: -1

Query string: Please look up its growth inhibition: CC1=NN(C(=O)c2ccc(Cl)cc2)C(=O)/C1=C/c1cccc([N+](=O)[O-])c1
Result string: -28.4

Query string: Please look up its growth inhibition: O=C(O)Cc1cc2c(cc1I)OCO2
Result string: -0.55

Query string: Please look up its growth inhibition: CC(=O)Oc1ccc(CCC(=O)O)cc1
Result string: 20.9

Query string: Please look up its growth inhibition: S=c1c(-c2ccccc2)cnc2sccn12
Result string: 18.4

Query string: Please look up its growth inhibition: N#CCN(CC#N)C1CC=CCC1N(CC#N)CC#N (stereo unspecified)
Result string: -38.1

Query string: Please look up its growth inhibition: Cc1ccc(-c2ccc(C)cc2C(=O)O)c(C(=O)O)c1
Result string: -15.3

Query string: Please look up its growth inhibition: CC1CC(=O)c2c(ccc3c2C(=O)c2cccc(O)c2C3=O)C1 (stereo unspecified)
Result string: 52.8

Query string: Please look up its growth inhibition: Cc1ccccc1OC(=O)Oc1ccccc1C
Result string: 21.9

Query string: Please look up its growth inhibition: COc1cccc2c1C(=O)c1c(O)c(CCl)cc(OC)c1C2=O
Result string: 14.9

Query string: Please look up its growth inhibition: O.O.O=S(=O)(O)C(F)(F)F.[NH2-].[NH2-].[NH2-].[NH2-].[Ru+3]
Result string: -11.6

Query string: Please look up its growth inhibition: Cc1cn(C2CC3C(COC(c4ccccc4)N3O)O2)c(=O)[nH]c1=O (stereo unspecified)
Result string: 7.15

Query string: Please look up its growth inhibition: COc1ccc(-c2oc(=O)c3ccccc3c2-c2ccccc2)cc1
Result string: 6.4

Query string: Please look up its growth inhibition: O=C1CCCN(c2ccccc2)N1
Result string: -3.8

Query string: Please look up its growth inhibition: OC1CN(c2ccc(Br)cc2)CC(O)CN(c2ccc(Br)cc2)C1 (stereo unspecified)
Result string: 99.7

Sourced from PubChem BioAssay (NCI)
